target_or_test_system: hABHD12 (Homo sapiens, UniProt Q8N2K0)
Construct: expressed in transfected cells; host or cells: HEK293 (transient)
Sequence (Q8N2K0 whole entry): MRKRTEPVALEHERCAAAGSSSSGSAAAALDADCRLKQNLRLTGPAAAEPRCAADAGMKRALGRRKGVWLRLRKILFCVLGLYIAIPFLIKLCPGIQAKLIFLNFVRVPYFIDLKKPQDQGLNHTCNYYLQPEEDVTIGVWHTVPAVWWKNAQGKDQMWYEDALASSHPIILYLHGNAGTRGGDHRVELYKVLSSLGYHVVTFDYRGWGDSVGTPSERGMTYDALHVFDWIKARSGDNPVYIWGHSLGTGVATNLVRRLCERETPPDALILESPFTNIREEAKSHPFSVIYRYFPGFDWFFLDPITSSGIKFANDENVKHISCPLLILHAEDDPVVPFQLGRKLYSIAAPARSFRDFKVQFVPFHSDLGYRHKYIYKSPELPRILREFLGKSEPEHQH
experimental_details: Fluorescent glycerol assay of 1-AG hydrolysis in hABHD12-HEK293 lysates
Type: biochemical
conditions_used: hABHD12-HEK293 lysates; read-out: IC50
Method: Glycerol liberated from 1-AG hydrolysis was determined with a sensitive fluorescent assay using lysates of HEK293 cells with transient overexpression of hABHD12, hABHD6 or hMAGL, essentially as previously described. […] Fluorescence (λex 530; λem 590 nm) was monitored using a Tecan Infinite M200 plate reader (Tecan Group Ltd., Männedorf, Switzerland). […]
Entries and their measured pIC50 follow.
Reminder that pIC50 means the negative base-10 logarithm of the concentration expressed in mol/L.

C=C(C)[C@@H]1CC[C@]2(C(=O)O)CC[C@]3(C)[C@H](CC[C@@H]4[C@@]5(C)CCC(=O)NC(C)(C)[C@@H]5CC[C@]43C)[C@@H]12: 5.04
C=C(C)[C@@H]1CC[C@]2(C(=O)O)CC[C@]3(C)[C@H](CC[C@@H]4[C@@]5(C)Cc6cccnc6C(C)(C)[C@@H]5CC[C@]43C)[C@@H]12: 5.17

For the compound C=C(C)[C@@H]1CC[C@]2(C(=O)O)CC[C@]3(C)[C@H](CC[C@@H]4[C@@]5(C)CC6OC(C)(C)OC6C(C)(C)[C@@H]5CC[C@]43C)[C@@H]12 (stereo partly shown) , give its measured pIC50 value. 5.12

For the compound `C=C(C)[C@@H]1CC[C@]2(C(=O)O)CC[C@]3(C)[C@H](CC[C@@H]4[C@@]5(C)Cc6nccnc6C(C)(C)[C@@H]5CC[C@]43C)[C@@H]12` , give its measured pIC50 value. 5.44

For the compound `C=C(C)[C@@H]1CC[C@]2(C=NO)CC[C@]3(C)[C@H](CC[C@@H]4[C@@]5(C)CC[C@H](O)C(C)(C)[C@@H]5CC[C@]43C)[C@@H]12` , give its measured pIC50 value. 5.19

For the compound `C=C(C)[C@@H]1CC[C@]2(C=O)CC[C@]3(C)[C@H](CC[C@@H]4[C@@]5(C)CCC(=O)C(C)(C)[C@@H]5CC[C@]43C)[C@@H]12` , give its measured pIC50 value. 5.36

For the compound C=C(C)C1CCC2(C(=O)O)CCC3(C)C(CCC4C5(C)Cc6c([nH]c7ccccc67)C(C)(C)C5CCC43C)C12 (stereo not shown) , give its measured pIC50 value. 6.05
